ASSAY INFO: In vivo pharmacokinetics in plasma after oral gavage (PO) in male CD-1 mice
ASSAY SETUP: single PO dose 5 mg/kg, male CD-1 mice, plasma
METRIC NAME: AUC/D (kg·ng·h/mL/mg)

Known AUC/D results, listed for orientation:
COMPOUND	AUC/D (kg·ng·h/mL/mg)
CCS(=O)(=O)Nc1nccc(COc2ccc(C(C)(C)c3cc(Cl)c(OCCCl)c(C#N)c3)cc2)n1 [Compound A131]	15209.4
CC(C)(c1ccc(OCc2ccnc(NS(C)(=O)=O)n2)cc1)c1cc(Cl)c(OCCCl)c(C#N)c1 [Compound A109]	6143.0
Cc1cc(C(C)(C)c2ccc(OCc3ocnc3S(C)(=O)=O)cc2)cc(C#N)c1OCCCl [Compound A29]	1037.3
CC(C)(c1ccc(OCc2ncc(S(C)(=O)=O)o2)cc1)c1cc(Cl)c(OCCCl)c(Cl)c1 [Compound A66]	2385.4
C[C@H](Oc1ccc(C(C)(C)c2cc(Cl)c(OCCCl)c(C#N)c2)cc1)c1ccnc(NS(C)(=O)=O)n1 (single isomer, unassigned) [Compound A170]	16007.6

P: CC(C)(c1ccc(OCc2coc(NS(C)(=O)=O)n2)cc1)c1cc(Cl)c(OCCCl)c(Cl)c1 [Compound A38]
Q: CC(C)(c1ccc(OCc2ocnc2S(C)(=O)=O)cc1)c1cc(Cl)c(OCCCl)c(C#N)c1 [Compound A28]
Problem: Short answer wanted: higher AUC/D, P or Q ? Lab log: write the label of the selected item as the result.
Solution: P

====

Property: IC50; scope: individual compounds
EXPERIMENTAL TARGET: androgen receptor (AR) (Homo sapiens, UniProt P10275, T878A)
Construct: LNCaP cells were transiently transfected with the PSA (6.1 kb)-luciferase reporter for 24 h; endogenous in cells; host or cells: LNCaP
Sequence (P10275 1-920 T878A): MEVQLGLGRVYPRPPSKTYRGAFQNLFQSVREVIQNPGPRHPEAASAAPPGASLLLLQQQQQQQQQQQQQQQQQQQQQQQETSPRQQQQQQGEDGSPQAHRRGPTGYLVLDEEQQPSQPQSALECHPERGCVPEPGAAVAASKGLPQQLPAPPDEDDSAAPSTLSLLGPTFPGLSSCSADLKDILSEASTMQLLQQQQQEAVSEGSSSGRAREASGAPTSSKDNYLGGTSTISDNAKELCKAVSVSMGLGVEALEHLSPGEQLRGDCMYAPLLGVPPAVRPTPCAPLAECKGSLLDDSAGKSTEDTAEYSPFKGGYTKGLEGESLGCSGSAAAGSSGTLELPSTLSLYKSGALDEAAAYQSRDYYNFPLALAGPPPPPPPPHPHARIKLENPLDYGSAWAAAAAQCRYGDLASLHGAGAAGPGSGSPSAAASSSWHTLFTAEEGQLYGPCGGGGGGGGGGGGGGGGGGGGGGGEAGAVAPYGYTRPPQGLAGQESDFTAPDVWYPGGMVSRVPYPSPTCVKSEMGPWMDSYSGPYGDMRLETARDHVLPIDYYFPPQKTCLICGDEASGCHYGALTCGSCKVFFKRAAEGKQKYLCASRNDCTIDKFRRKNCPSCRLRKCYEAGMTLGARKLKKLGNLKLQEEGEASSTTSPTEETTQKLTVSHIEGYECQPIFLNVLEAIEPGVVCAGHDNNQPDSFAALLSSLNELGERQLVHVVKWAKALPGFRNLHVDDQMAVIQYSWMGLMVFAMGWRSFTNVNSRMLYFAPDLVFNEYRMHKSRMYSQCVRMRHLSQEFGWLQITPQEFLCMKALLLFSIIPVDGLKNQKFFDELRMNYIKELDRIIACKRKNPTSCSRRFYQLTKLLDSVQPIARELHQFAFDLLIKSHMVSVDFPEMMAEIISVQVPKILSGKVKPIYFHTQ
ASSAY INFO: Androgen-induced PSA (6.1 kb)-luciferase reporter assay in LNCaP cells
Format: cell-based
ASSAY SETUP: LNCaP cells transfected with PSA (6.1 kb)-luciferase reporter, R1881 1 nM, 24 h; read-out: PSA-Luc IC50 Range

COMPOUND	EXPERIMENTAL TARGET	IC50
CC(Oc1ccc(C(C)(O)c2cc(Cl)c(OCCCl)c(C#N)c2)cc1)c1ocnc1S(C)(=O)=O (stereo not drawn) [Compound A95]	androgen receptor (AR) (Homo sapiens, UniProt P10275, T878A)	> 2000 nM
CC(C)(c1ccc(CNc2ccnc(NS(C)(=O)=O)n2)cc1)c1cc(Cl)c(OCCCl)c(C#N)c1 [Compound A120]	androgen receptor (AR) (Homo sapiens, UniProt P10275, T878A)	> 2000 nM
CC(C)(c1ccc(OCc2cnc(S(C)(=O)=O)s2)cc1)c1cc(Cl)c(OCCCl)c(C#N)c1 [Compound A149]	androgen receptor (AR) (Homo sapiens, UniProt P10275, T878A)	< 500 nM
CC(C)(c1ccc(OCc2cnc(Cl)o2)cc1)c1cc(Cl)c(OCCCl)c(C#N)c1 [Compound A115]	androgen receptor (AR) (Homo sapiens, UniProt P10275, T878A)	< 500 nM
CC(C)(c1ccc(OCc2nc(C#N)co2)cc1)c1cc(Cl)c(OCCCl)c(C#N)c1 [Compound A174]	androgen receptor (AR) (Homo sapiens, UniProt P10275, T878A)	500 to 2000 nM
CC(=O)Nc1nccc(COc2ccc(C(C)(C)c3cc(C)c(OCCCl)c(C#N)c3)cc2)n1 [Compound A100]	androgen receptor (AR) (Homo sapiens, UniProt P10275, T878A)	< 500 nM

Problem: State the recorded IC50 for this entry: Cc1cc(C(C)(C)c2ccc(OC(C)c3scnc3S(C)(=O)=O)cc2)cc(C#N)c1OCCCl (stereo not drawn) [Compound A70]
Solution: < 500 nM

Problem: Would you mind doing CC(C)(c1ccc(NC(=O)c2coc(S(C)(=O)=O)n2)cc1)c1cc(Cl)c(OCCCl)c(C#N)c1 [Compound A96] as well?
Solution: > 2000 nM

Problem: Would you mind doing CC(C)(c1ccc(OCc2coc(S(C)(=O)=O)n2)cc1)c1cc(Cl)c(OCCCl)c(Cl)c1 [Compound A68] as well?
Solution: < 500 nM

Problem: Would you mind doing CC(C)(c1ccc(OCc2ccnc(NS(C)(=O)=O)n2)cc1)c1cc(Cl)c(OCCCl)c(Cl)c1 [Compound A74] as well?
Solution: 500 to 2000 nM

Problem: Would you mind doing CC(C)(c1ccc(OCc2ncc(S(C)(=O)=O)o2)cc1)c1cc(Cl)c(OCCCl)c(C#N)c1 [Compound A153] as well?
Solution: 500 to 2000 nM

Problem: Would you mind doing CC(C)(c1ccc(OCc2ocnc2S(C)(=O)=O)cc1)c1cc(Cl)c(OCCN)c(Cl)c1 [Compound A53] as well?
Solution: > 2000 nM

Problem: Would you mind doing CC(C)(c1ccc(-c2cc(CNS(C)(=O)=O)on2)cc1)c1cc(Cl)c(OCCCCl)c(Cl)c1 [Compound A22] as well?
Solution: > 2000 nM

Problem: Would you mind doing CC(C)(c1ccc(OCc2cnc(NS(C)(=O)=O)o2)cc1)c1cc(Cl)c(OCCCl)c(C#N)c1 [Compound A133] as well?
Solution: < 500 nM

Problem: Would you mind doing Cc1nc(S(C)(=O)=O)oc1COc1ccc(C(C)(C)c2cc(Cl)c(OCCCl)c(C#N)c2)cc1 [Compound A81] as well?
Solution: < 500 nM
